The entries below are paired with their reported IC50.
Molecular target: human recombinant 11β-HSD2 (Homo sapiens)
Sequence (P80365 whole entry): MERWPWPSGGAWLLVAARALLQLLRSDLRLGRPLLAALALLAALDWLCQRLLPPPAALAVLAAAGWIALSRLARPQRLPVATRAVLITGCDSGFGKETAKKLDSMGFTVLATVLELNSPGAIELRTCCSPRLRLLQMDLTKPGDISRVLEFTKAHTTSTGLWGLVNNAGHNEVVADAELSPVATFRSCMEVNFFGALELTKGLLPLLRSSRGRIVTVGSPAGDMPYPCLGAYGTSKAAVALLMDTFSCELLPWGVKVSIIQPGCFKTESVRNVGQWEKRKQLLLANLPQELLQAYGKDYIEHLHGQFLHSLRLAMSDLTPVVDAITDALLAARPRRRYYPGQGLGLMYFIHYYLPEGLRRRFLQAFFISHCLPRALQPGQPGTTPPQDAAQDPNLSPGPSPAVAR
Assay: Measuring test for human 11β-HSD2 inhibitory activity (HTRF cortisol detection)
Assay type: biochemical
Settings: human recombinant 11β-HSD2, 200 nM cortisol, 200 μM NAD, pH 8.0, 37° C. 2 h

{"Compound": "CCn1c(-c2ccc(C(N)=O)cc2)nnc1C(C)(C)Oc1c(F)cc(Cl)cc1F", "Target Or System": "human recombinant 11β-HSD2 (Homo sapiens)", "Attribute Measured": "IC50", "Assay Result": "> 10 µM"}
{"Compound": "C[C@H](Oc1ccc(C(N)=O)cc1Br)c1nnc(-c2ccccc2C(F)(F)F)n1C", "Target Or System": "human recombinant 11β-HSD2 (Homo sapiens)", "Attribute Measured": "IC50", "Assay Result": "> 3 µM"}
{"Compound": "Cn1c(-c2sc(N)nc2C(F)(F)F)nnc1C(C)(C)Oc1c(F)cc(Cl)cc1F", "Target Or System": "human recombinant 11β-HSD2 (Homo sapiens)", "Attribute Measured": "IC50", "Assay Result": "> 3 µM"}
{"Compound": "CC(C)n1c(-c2ccc(C(N)=O)cc2)nnc1C(C)(C)Oc1c(F)cc(F)cc1F", "Target Or System": "human recombinant 11β-HSD2 (Homo sapiens)", "Attribute Measured": "IC50", "Assay Result": "> 10 µM"}

**Q:** I have this compound here, `CC(C)(Oc1c(F)cc(Cl)cc1F)c1nnc(-c2cc3c(cc2F)C(=O)NC3)n1C1CC1` , and I need its recorded IC50.
**A:** > 3 µM

**Q:** Quick one: IC50 for `Cn1c(-c2ccccc2C(F)(F)F)nnc1C(C)(C)Oc1ccc(Br)cn1` ?
**A:** > 3 µM

###

Target: human recombinant 11β-HSD1 (Homo sapiens, UniProt P28845)
Construct: made in house
Sequence (P28845 whole entry): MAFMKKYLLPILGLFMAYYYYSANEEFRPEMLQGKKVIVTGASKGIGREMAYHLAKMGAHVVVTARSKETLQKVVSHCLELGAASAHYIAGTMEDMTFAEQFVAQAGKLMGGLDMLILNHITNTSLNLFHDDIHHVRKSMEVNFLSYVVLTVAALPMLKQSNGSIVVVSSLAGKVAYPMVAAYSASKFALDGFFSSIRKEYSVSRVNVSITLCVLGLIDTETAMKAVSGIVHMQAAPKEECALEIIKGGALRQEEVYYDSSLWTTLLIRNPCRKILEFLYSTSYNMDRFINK
Assay: Measuring test for human 11β-HSD1 inhibitory activity (HTRF cortisol detection)
Assay type: biochemical
Conditions: human recombinant 11β-HSD1, 200 nM cortisone, 40 μM NADPH, pH 6.6, room temperature 1 h
Where a name gives a salt, the structure may show the parent alone.
Returns: string. Value is Met if measured IC50 is below 0.02 µM, and Not met if it is greater than or equal to it.

{"Compound": "Cn1c(-c2ccccc2C(F)(F)F)nnc1C(C)(C)Oc1ccc(Cl)cc1-c1nnco1", "Group Label": "Met"}

**Q:** Would you kindly verify if IC50 of Cn1c(-c2ccc(F)cc2Cl)nnc1C(C)(C)Oc1c(F)cc(F)cc1F [Example 65, monohydrochloride] is strictly less than 0.02 µM?
**A:** Met

**Q:** Problem: For the compound `CC(C)n1c(-c2ccc(C(N)=O)cc2)nnc1C(C)(C)Oc1c(F)cc(F)cc1F` , is IC50 under 0.02 µM?
**A:** Not met

**Q:** hey, is IC50 for `Cn1cc(-c2nnc(C(C)(C)Oc3c(F)cc(F)cc3F)n2C2CC2)c(Cl)n1` lower than 0.02 µM or not?
**A:** Not met

**Q:** Please determine if `CC(C)(Oc1ccc(F)cc1F)c1nnc(-c2ccc(C(N)=O)cc2F)n1C1CC1` is below 0.02 µM in terms of IC50.
**A:** Not met

**Q:** Threshold test, IC50 < 0.02 µM: `CCn1c(-c2ccc3cn[nH]c3c2)nnc1C(C)(C)Oc1c(F)cc(Cl)cc1F`
**A:** Not met

**Q:** Dear reviewer, please state whether `Cn1c(-c2ccccc2C(F)(F)F)nnc1C(C)(C)Oc1ccc(Br)cn1` has IC50 strictly beneath 0.02 µM.
**A:** Met

**Q:** Below 0.02 µM on IC50? Entry `CCn1c(-c2ccc(C(N)=O)cc2)nnc1C(C)(C)Oc1c(F)cc(Cl)cc1F`
**A:** Not met
